Numbers sourced from patent US20250382363A1.

Test target: T1, human a-Mesothelin (Acro Biosystems; MSN_H5223) (human, UniProt Q13421 296-580, limits assumed)
T1 construct: Bought protein immobilised on the SPR chip; Printed as 'a-Mesothelin' but used as the antigen for the anti-MSLN scFvs; also called Human MSLN; MSLN
T1 sequence (Q13421 other isoform, or with tags, fused parts or gaps limits assumed): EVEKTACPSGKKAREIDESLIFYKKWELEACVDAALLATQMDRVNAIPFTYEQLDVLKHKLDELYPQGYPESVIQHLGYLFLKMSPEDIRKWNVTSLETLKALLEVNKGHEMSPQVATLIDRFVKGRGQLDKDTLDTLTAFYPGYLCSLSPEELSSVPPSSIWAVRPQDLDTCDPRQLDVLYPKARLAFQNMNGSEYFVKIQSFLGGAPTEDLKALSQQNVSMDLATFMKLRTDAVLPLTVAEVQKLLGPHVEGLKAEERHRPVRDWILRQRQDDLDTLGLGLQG
Procedure summary: SPR, mesothelin immobilised, scFv analyte, 1:1 fit
pKd: −log10 of the molar value.

Binder | pKd
PRO3319 (scFv 54-21-H03-sc01_(L12A, T101S, L144A, T146R)) (scFv, PRO1922 variant; VH substitutions, AHo numbering; also called PRO1922 L12A-T101S-L144A-T146R) scFv: DIQMTQSPSSLSASVGDRVTITCQASESIYSSLAWYQQKPGKAPKLLIYLASTLASGVPSRFSGSGSGTDFTLTISSLQPEDFATYYCQSTDYTTSTHRNSFGTGTKVTVLGGGGGSGGGGSGGGGSGGGGSEVQLVESGGGAVQPGGSLRLSCAASGFSFSTTYYMCWVRQAPGKGLEWIGCTNTASSVRTYYATWAKGRFTISRDNSKNTVYLQMNSLRAEDSAVYYCARDMGFADYALNLWGQGTAVRVSS | 8.60
